- protocol: Phase 1 trial, pharmacokinetics in healthy volunteers
- Format: in vivo, human
- experimentalParameters: human, in vivo, 600 mg, 600 mg BID, Day 10
assayReadout: Cmax

structureassmiles=CC(C)(O)c1nc2ccccc2cc1N val="1460 ng/mL"

* * *

- protocol: Phase 1 trial, pharmacokinetics in healthy volunteers
- Type: in vivo, human
- experimentalParameters: human, in vivo, 600 mg, 600 mg BID, Day 1; read-out: 0 to 12 hour area under the curve (AUCtau)
assayReadout: AUC (ng·h/mL)

structureassmiles=CC(C)(O)c1nc2ccccc2cc1N val=5710

* * *

- protocol: Phase 1 trial, pharmacokinetics in healthy volunteers
- Format: in vivo, human
- experimentalParameters: human, in vivo, 600 mg, 600 mg BID, Day 10; read-out: 0 to 12 hour area under the curve (AUCtau)
assayReadout: AUC (ng·h/mL)

structureassmiles=CC(C)(O)c1nc2ccccc2cc1N val=6800
